System: PD1-ss+10aa/Gaussia Luciferase
Assay details: Dox-Induced PD1-ss-Gluc Assay
Type: cell-based
Condition details: 24 hr doxycycline induction, 293FRT/TO cells, Gaussia luciferase signal; read-out: 24 hr Dox Inducible PD1ssGluc 293FRT/TO: Mean IC50
// reported pIC50 for each item listed
Scale for pIC50: -log10 of concentration given in mol/L; no unit attached.

The cases that follow already have their pIC50 on record.
# Compound, Reading
measured = [
    ("CC(C)OC(C)(C)c1csc(NC(=O)c2cccn2Cc2ccncc2C(F)(F)F)n1 [Compound A214]", 5.34),
    ("CC(C)(OC1CCCCC1)c1csc(NC(=O)c2cccn2Cc2ccncc2)n1 [Compound A10]", 6.98),
    ("CC(C)OC(C)(C)c1csc(NC(=O)c2cccn2Cc2c(F)cncc2F)n1 [Compound A256]", 5.67),
    ("C[C@H](OC(C)(C)c1csc(NC(=O)c2cccn2Cc2ccncc2)n1)c1ccccc1 [Compound A1]", 7.62),
    ("CC(C)(CCc1ccccn1)c1csc(NC(=O)c2cccn2Cc2ccncc2)n1 [Compound A262]", 5.84),
]

pIC50 for CC(C)OC(C)(C)c1csc(NC(=O)c2cccn2Cc2ccncc2)n1 [Compound A16] ?
6.73

Same for CCC(C)c1csc(NC(=O)c2cccn2Cc2ccncc2)n1 (centres unmarked) [Compound A23]
6.54
